MEASURED_TARGET: Cysteinyl leukotriene receptor 1 (Homo sapiens, UniProt Q9Y271)
Sequence (Q9Y271 whole entry): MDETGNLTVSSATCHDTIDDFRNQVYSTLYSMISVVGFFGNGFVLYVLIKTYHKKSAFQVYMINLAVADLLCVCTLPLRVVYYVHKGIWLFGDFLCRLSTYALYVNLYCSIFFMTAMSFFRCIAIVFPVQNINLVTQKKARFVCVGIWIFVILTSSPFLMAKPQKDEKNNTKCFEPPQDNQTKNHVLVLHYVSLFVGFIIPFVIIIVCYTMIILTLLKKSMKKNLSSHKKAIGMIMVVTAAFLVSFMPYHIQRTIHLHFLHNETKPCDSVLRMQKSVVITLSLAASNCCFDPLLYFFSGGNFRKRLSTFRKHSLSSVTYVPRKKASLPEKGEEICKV
Assay type: cell membranes, CHO-K1, Membrane
CONDITION_LABEL: read-out: IC50
READOUT_TYPE: IC50 (µM)
Answer with a number only, understood to be in µM.

Look up IC50 for this compound: `CN(CCOc1ccc(C[C@H](Nc2ccccc2C(=O)c2ccccc2)C(=O)O)cc1)c1ccccn1` 10.9
